Data credit: patent US20240150440A1

- target-desc: SARS-CoV-2 spike protein on pseudotyped lentivirus (Wuhan Reference Pseudovirus) (SARS-CoV-2, UniProt P0DTC2 14-1273)
- assay-explanation: cell-based or functional assay
Param threshold (200 nM) applies to Pseudovirus inhibition IC50; output T when value >= threshold, F when value < threshold.

{"columns": ["binder", "assigned-label"],
 "data": [
  ["MBP-R2B-D5-H6 (VHH, monomer) VHH: QVQLVESGGGLVQPGGSLRLSCAASGYADEINMVHWYRQAPGKGREFVAAIASGGSTFYADSVKGRFTISRDNAKNTVYLQMNSLKPEDTAVYYCAAIPRPSLSYAHDYAYWGQGTQVTVSS", "F"],
  ["PP1155 MPB-scTRP-PAPA-R2b-D5-H6 (VHH, Form: Trimer) VHH: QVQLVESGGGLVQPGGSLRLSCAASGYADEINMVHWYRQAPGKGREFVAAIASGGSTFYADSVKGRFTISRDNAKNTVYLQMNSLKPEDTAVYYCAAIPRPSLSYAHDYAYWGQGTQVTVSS", "F"],
  ["dimeric VHH (VHH-5HVZ-MBP) R2B-E6 (VHH) VHH: QVQLVESGGGLVQPGGSLRLSCAASGGVTRGNAMAWYRQAPGKQREIVAAIDNGGSHAYGDSVKGRFTISRDNAKNTVYLQMNSLKPEDTAVYYCAVFPDHDSEQASIDRVYWGQGTQVTVSS", "T"],
  ["PP1131 MBP-4B0F-PAPA-R2b-D5-H6 (VHH, Form: Heptamer) VHH: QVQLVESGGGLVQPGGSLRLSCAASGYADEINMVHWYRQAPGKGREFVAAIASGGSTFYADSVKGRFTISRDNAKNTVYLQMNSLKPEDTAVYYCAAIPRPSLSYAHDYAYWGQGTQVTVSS", "F"],
  ["PP1143 MBP-5HVZ-PAPA-R2b-D5-H6 (VHH, Form: Dimer) VHH: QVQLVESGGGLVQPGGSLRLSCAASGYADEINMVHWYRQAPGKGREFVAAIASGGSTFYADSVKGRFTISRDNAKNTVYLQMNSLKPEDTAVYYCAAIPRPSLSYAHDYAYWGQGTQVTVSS", "F"],
  ["dimeric VHH (VHH-5HVZ-MBP) R2A-F3 (VHH) VHH: QVQLVESGGGLVQPGGSLRLSCAASGSITSINWMHWFRQAPGKDREGVASISQTGRGSYADSVKGRFTISRDNAKNTVYLQMNSLKPEDTAVYYCAAASRTGTPYNYWGQGTQVTVSS", "T"]
]}
